system: SK-MEL-28 melanoma; experiment: NCI-60 one-dose screen, 48 h (100 = growth as untreated, 0 = no growth, -100 = all killed); details: 10 µM unless noted
The panel holds about 83,000 compounds, 20% with a hit somewhere; the sample as a whole holds those more often.
measured_metric: growth (%)
The reply should contain only the number, in %.

Form: compound = CCOc1ccc(NC(=O)Nc2cc(C(C)C)ccc2C)cc1 ; growth = 68

Form: compound = COc1ccc(C(=O)NC(=O)Nc2ccc3c(c2)NC(=O)/C3=C\c2[nH]c(C)c(CCC(=O)O)c2C)c(F)c1 ; growth = 31.1

Form: compound = Cc1ccc2nc(-c3ccc(-n4on4-c4ccc(/C=C/c5ccc(-n6on6-c6ccc(-c7nc8ccc(C)cc8s7)cc6)cc5S(=O)(=O)O)c(S(=O)(=O)O)c4)cc3)sc2c1 ; growth = 107

Form: compound = Cc1ccc(Cn2cc(COc3ccc4c5ccnc(C)c5n(CCCc5ccccc5)c4c3)nn2)cc1 ; growth = 104

Form: compound = COc1ccc(CNc2nc3ccccc3c3c(=O)c4ccccc4sc23)cc1OC ; growth = 93.3

Form: compound = FC(F)(F)c1cccc([Si](F)(c2cccc(C(F)(F)F)c2)c2cccc(C(F)(F)F)c2)c1 ; growth = 85.8

Form: compound = OCc1cnccc1NC12CC3CC(CC(C3)C1)C2 ; growth = 105

Form: compound = O=C(NC(=S)Nc1ccc(Cl)cc1)c1ccccc1 ; growth = 96.2

Form: compound = O=C(Nc1ccc(-n2ccc3c(NC(=O)c4ccccc4)ncnc32)cc1)Nc1ccc(Cl)c(C(F)(F)F)c1 ; growth = 34.6

====

test system: MDA-MB-435 melanoma; test: NCI-60 one-dose screen, 48 h; settings: 10 µM unless noted
This is part of a sample that, as a whole, favours compounds with a hit. Of some 83,000 tested, about 20% had one in any assay. Calls of active or inactive are those of the source. The calls were made as follows: active = growth percent below 10; inactive = the rest.
Your response should consist of one outcome taken from active, inactive

Query: Assay outcome for O=C(Nc1cccc([N+](=O)[O-])c1)Nc1cccc([N+](=O)[O-])c1 : what was it?
Response: inactive

Query: Assay outcome for O=C(O)c1ccccc1C(=O)c1ccc(I)cc1 : what was it?
Response: inactive

Query: Assay outcome for Cc1cn(C2CC(F)C(CO)O2)c(=O)[nH]c1=O (stereo not given) : what was it?
Response: inactive

Query: Assay outcome for COc1ccc(-c2nnc(SCC(=O)Nc3ccc(C(=O)/C=C/c4ccccc4)cc3)o2)cc1OC : what was it?
Response: inactive

Query: Assay outcome for O=C(CSc1nnc(-c2cc3c([nH]c4ccccc43)c(-c3cccc(O)c3)n2)n1-c1ccccc1)c1ccccc1 : what was it?
Response: active

Query: Assay outcome for Cc1cn(C2CC(N=[N+]=[N-])C(COP(=O)(O)OP(=O)(O)OP(=O)(O)O)O2)c(=O)[nH]c1=O (stereo not given) : what was it?
Response: inactive

Query: Assay outcome for COc1ccccc1S(=O)(=O)Nc1ccc2c3c(cc(-c4ccoc4)nc13)C(=O)N2C : what was it?
Response: inactive

Query: Assay outcome for O=C1/C(=C/c2cccc3cnccc23)Cc2cc(F)ccc21 : what was it?
Response: inactive

Query: Assay outcome for O=C(Nc1ccc(-n2cc(-c3ccncc3)c(-c3ccc(O)c(Cl)c3)n2)cc1)c1ccc(Cl)c(C(F)(F)F)c1 : what was it?
Response: inactive

Query: Assay outcome for c1ccc(CNCCN(CCNCc2ccccn2)Cc2ccc3ccccc3c2)nc1 : what was it?
Response: inactive

Query: Assay outcome for Cc1cc(NCCN(C(C)C)C(C)C)nc(/N=C(\N)Nc2ccc(Cl)c(C(F)(F)F)c2)n1 : what was it?
Response: active

Query: Assay outcome for CCCCOc1nc2ccc(Cl)cc2cc1/C=C/C(=O)/C=C/c1ccc(Cl)cc1 : what was it?
Response: active

Query: Assay outcome for C=CC(=O)Nc1cccc(Nc2nc(Nc3ccc(OCCOC(F)F)cc3)ncc2F)c1 : what was it?
Response: active

Query: Assay outcome for COc1ccc2c(c1)C(=O)/C(=C/c1cccc(OCC(=O)c3ccccc3)c1)O2 : what was it?
Response: inactive

Query: Assay outcome for C=C1C(=O)O[C@H]2[C@H]1CC/C(COC(=O)c1ccc(C#N)cc1)=C\CC[C@@]1(C)O[C@@H]21 : what was it?
Response: inactive

Query: Assay outcome for OCCOCC(F)(F)F : what was it?
Response: inactive

Query: Assay outcome for CN(C)CCCOc1c(Br)cc(/C=C/C(=O)N(C)CCc2cc(Br)c(OCCCN(C)C)c(Br)c2)cc1Br : what was it?
Response: inactive

Query: Assay outcome for O=C(O)c1cccc(S(=O)(=O)c2ccccc2)c1 : what was it?
Response: inactive

Query: Assay outcome for O=C(NCCNc1nccc(-c2c(-c3cccc(O)c3)nc3sccn23)n1)c1cc(N2CCOCC2)cc(C(F)(F)F)c1 : what was it?
Response: inactive

Query: Assay outcome for C=C1C(=O)O[C@H]2[C@H]1CC/C(C(=O)Nc1ccc(OC)c(C(N)=O)c1O)=C\CC[C@@]1(C)O[C@@H]21 : what was it?
Response: inactive

Query: Assay outcome for CC(C)Cn1cnc2c3ccccc3nc(NCn3nc(-c4cc(Cl)cc(Cl)c4Cl)oc3=S)c21 : what was it?
Response: inactive

Query: Assay outcome for Cc1cccc(NC(=O)CCc2ccc(N3C(N)=NC(N)=NC3(C)C)cc2)c1 : what was it?
Response: inactive

Query: Assay outcome for CN(C)CC/C=C1\c2ccccc2Sc2ccc(Cl)cc21 : what was it?
Response: inactive

Query: Assay outcome for COc1cccc(C2CC(c3cc(OC)c(OC)c(OC)c3)=NN2)c1 (stereo not given) : what was it?
Response: inactive

Query: Assay outcome for CCC1S/C(=N\N=C(/C)c2cc3ccccc3o2)N(c2ccccc2)C1=O (stereo not given) : what was it?
Response: inactive

Query: Assay outcome for CN(C)CCS(=O)(=O)Nc1cc(-c2ccc3ncnc(Nc4ccc(F)c(Cl)c4)c3c2)cnc1Cl : what was it?
Response: active

Query: Assay outcome for C[C@H]1C=C(C[C@@H](O)CCCCCCCCCC[C@@H](O)[C@H]2CCC(=O)O2)C(=O)O1 : what was it?
Response: inactive

Query: Assay outcome for CN(C)c1ccc(/C=c2\s/c(=C\C(=O)C(C)(C)C)[nH]c2=O)cc1 : what was it?
Response: inactive

Query: Assay outcome for C=C1C(=O)O[C@H]2[C@H]1CC/C(COC(=O)c1ccccc1)=C\CC[C@@]1(C)O[C@@H]21 : what was it?
Response: active

Query: Assay outcome for Nc1ncc(-c2ccc3ncnc(Nc4ccc(F)c(Cl)c4)c3c2)cn1 : what was it?
Response: inactive

Query: Assay outcome for C[C@]12CC[C@@H]3c4ccc(O)c(N)c4CC[C@H]3[C@@H]1CC[C@@H]2O : what was it?
Response: inactive

Query: Assay outcome for O=C(Nc1cccc(-n2ccc3c(NC(=O)c4ccccc4)nccc32)c1)Nc1cc(C(F)(F)F)cc(C(F)(F)F)c1 : what was it?
Response: active

Query: Assay outcome for O=C(NCCNc1nccc(-c2c(-c3cccc(O)c3)nc3sccn23)n1)c1ccccc1 : what was it?
Response: inactive

Query: Assay outcome for CCc1cccc(-c2ccccc2)c1 : what was it?
Response: inactive

Query: Assay outcome for CCOc1cccc(Nc2nc(N)nc3[nH]c4ccc(O)cc4c23)c1 : what was it?
Response: inactive

Query: Assay outcome for Nc1nc(Cl)cc(NCCCCNc2cc(Cl)nc(N)n2)n1 : what was it?
Response: inactive

Query: Assay outcome for CCCCCCCCCCCCCCCCNc1ccccc1 : what was it?
Response: inactive

Query: Assay outcome for C#C[C@H](O)/C=C/CCCCCCC#C[C@H](O)CC[C@@H](O)C#CCCCCCC/C=C/[C@@H](O)C#C : what was it?
Response: inactive

Query: Assay outcome for O=C(c1cc(-c2ccc(Cl)cc2)nc2ccccc12)N1N=C(c2ccccc2)CC1c1cc(-c2ccccc2)nn1-c1ccccc1 (stereo not given) : what was it?
Response: inactive

Query: Assay outcome for NC(CCCC(N)C(=O)c1ccccc1)C(=O)O (stereo not given) : what was it?
Response: inactive
